Molecular target: T1, MC1-R (B16-F1 mouse melanoma cells) (mouse, UniProt Q01727 1-315)
T1 construct: whole, on cells; Assayed as membranes prepared from B16-F1 mouse melanoma cells; also called MC1 receptor; melanocortin-1 receptor
T1 sequence (Q01727 whole entry): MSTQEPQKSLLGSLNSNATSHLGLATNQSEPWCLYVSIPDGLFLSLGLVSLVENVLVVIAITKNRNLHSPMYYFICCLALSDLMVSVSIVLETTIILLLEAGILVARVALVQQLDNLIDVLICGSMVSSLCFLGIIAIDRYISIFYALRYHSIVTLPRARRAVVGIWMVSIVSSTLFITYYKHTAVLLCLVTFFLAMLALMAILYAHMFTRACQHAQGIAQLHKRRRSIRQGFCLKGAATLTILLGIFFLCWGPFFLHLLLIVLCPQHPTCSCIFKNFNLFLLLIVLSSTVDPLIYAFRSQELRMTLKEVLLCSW
Assay: titrated competitive binding assay on receptor membranes
assay.readout: Ki
Units required after the number.

Q: # get_value(readout='Ki', item= XDHFKWK (N-terminal acetyl; Nle at 1 (X); D-Phe at 4; cyclo (lactam) between side chains of Asp 2 and Lys 7; C-terminal free acid (-OH), Synthetic cyclic heptapeptide; X = norleucine; also called Ac-Nle-cyclo( -Asp-His-D-Phe-Lys-Trp-Lsy)-OH) [Ac-Nle-cyclo(-Asp-His-D-Phe-Lys-Trp-Lys)-OH] )
A: 9.9 nM
